Test system: 435261-313-R-J1-PDC complex spheroid viability;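 further: spheroids exposed to the agents for seven days before readout; percent of vehicle control viability with DMSO wells as 100%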
Protocol description: Anticancer human tumor 435261-313-R-J1-PDC patient-derived colon adenocarcinoma cell line growth inhibition [GQUAD]
Measurement parameters: second compound 3.16 µM; first compound 0.0316 µM; stronger effect = lower value
Experimental endpoint: viability, T/C (%)
Report as a plain number; the unit % is understood.

Look over these answered cases.
C=CC(=O)N1CCN(c2nc(=O)n(-c3c(C)ccnc3C(C)C)c3nc(-c4c(O)cccc4F)c(F)cc23)C(C)C1 (stereo not given) + Cc1cnc(CNC(=O)c2c(=O)c3ccc(N4CCCN(C)CC4)nc3n3c2sc2ccccc23)cn1 = 19.2
CC1COCCN1c1cc(C2(S(C)(=N)=O)CC2)nc(-c2ccnc3[nH]ccc23)n1 (stereo not given) + Cc1[nH]c2ccc(F)cc2c1-c1nc2c3cccnc3c3ncccc3c2[nH]1 = 29.6
COc1cccc2c1C(=O)c1c(O)c3c(c(O)c1C2=O)CC(O)(C(=O)CO)CC3OC1CC(N)C(O)C(C)O1 (stereo not given) + Cc1cnc(CNC(=O)c2c(=O)c3ccc(N4CCCN(C)CC4)nc3n3c2sc2ccccc23)cn1 = 15.4

Query (molecule): COc1ccc([C@@H](O)c2cc(-c3ncnc4cc(N5CCOCC5)ccc34)c(F)cc2Cl)nn1 + Cc1cnc(CNC(=O)c2c(=O)c3ccc(N4CCCN(C)CC4)nc3n3c2sc2ccccc23)cn1 ; field requested: viability, T/C 5.04

Query (molecule): CC1COCCN1c1cc(-c2ccnn2C)c2ccnc(-c3ccn[nH]3)c2n1 (stereo not given) + CN(C)c1ccc(Nc2c3ccc(NC(=O)CCN4CCCC4)cc3nc3cc(NC(=O)CCN4CCCC4)ccc23)cc1 ; field requested: viability, T/C 89
